assayed system: Human plasmin (Homo sapiens, UniProt P00747)
Construct: Human plasmin is purchased from Boehringer Mannheim; purchased Boehringer Mannheim, Indianapolis, Indiana
Sequence (P00747 581-810 limits assumed): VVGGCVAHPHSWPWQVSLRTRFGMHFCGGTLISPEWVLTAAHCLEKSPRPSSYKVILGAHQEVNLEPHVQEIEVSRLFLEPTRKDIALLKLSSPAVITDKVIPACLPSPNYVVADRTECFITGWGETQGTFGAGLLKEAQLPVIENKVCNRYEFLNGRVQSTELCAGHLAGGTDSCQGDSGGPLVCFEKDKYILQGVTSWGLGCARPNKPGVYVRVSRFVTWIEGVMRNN
Sequence (P00747 97-580 partner limits assumed): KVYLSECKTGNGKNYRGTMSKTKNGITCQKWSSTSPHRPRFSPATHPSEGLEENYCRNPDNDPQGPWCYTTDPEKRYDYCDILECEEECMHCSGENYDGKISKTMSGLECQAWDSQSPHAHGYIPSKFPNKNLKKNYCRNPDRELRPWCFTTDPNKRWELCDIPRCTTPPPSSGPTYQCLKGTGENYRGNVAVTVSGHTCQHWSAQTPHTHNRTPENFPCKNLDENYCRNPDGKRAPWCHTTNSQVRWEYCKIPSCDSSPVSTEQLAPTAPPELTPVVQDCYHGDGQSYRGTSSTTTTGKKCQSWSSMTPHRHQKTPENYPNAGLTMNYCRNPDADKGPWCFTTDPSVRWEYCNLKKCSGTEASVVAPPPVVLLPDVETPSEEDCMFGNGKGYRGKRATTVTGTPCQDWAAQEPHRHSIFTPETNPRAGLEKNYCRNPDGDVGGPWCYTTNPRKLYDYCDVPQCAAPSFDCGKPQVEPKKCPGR
assay method text: Fibrinolytic protease selectivity, Kass, plasmin chromogenic assay
Type: biochemical
assay setup: apparent association constant
quantity kind: Enzyme Kass Plasmin (L/mol × 10^6)

Some molecules with recorded Enzyme Kass Plasmin:
{"columns": ["molecule", "Enzyme Kass Plasmin / L/mol × 10^6"],
 "data": [
  ["Cc1ccccc1N(CC(=O)N[C@H](C=O)CCCN=C(N)N)C(=O)[C@H]1CCCCN1.Cl.Cl [Example 12, D--hPro--N(o--Me--Ph)Gly--ArgH.2HCl]", 0.060],
  ["Cl.Cl.N=C(N)NCCC[C@@H](C=O)NC(=O)CN(CCc1ccccc1)C(=O)[C@H]1CCCCN1", 0.44],
  ["Cl.Cl.NC(N)=NCCC[C@@H](C=O)NC(=O)CN(CCC1CCCCC1)C(=O)[C@H]1CCCCN1", 0.33]
]}

1: Cl.Cl.N=C(N)NCCC[C@@H](C=O)NC(=O)CN(CCCCC(=O)O)C(=O)[C@H]1CCCCN1
2: CCCN(CC(=O)N[C@H](C=O)CCCNC(=N)N)C(=O)[C@H]1CCCCN1.Cl.Cl
3: Cl.Cl.NC(N)=NCCC[C@@H](C=O)NC(=O)CN(CCc1ccccc1)C(=O)[C@H]1CCCN1 [Example 18, D--Pro--N(CH2 CH2 Ph)Gly--ArgH.2HCl]
Order each entry by recorded Enzyme Kass Plasmin, climbing from the minimum. To answer, write out the labels according to the requested order.
1, 2, 3
(1: 0.020 L/mol × 10^6, 2: 0.045 L/mol × 10^6, 3: 0.34 L/mol × 10^6)

* * *

assayed system: tissue plasminogen activator (t-PA) (Homo sapiens)
Construct: purchased American Diagnostica, Greenwich, Conn
Sequence (P00750 36-562): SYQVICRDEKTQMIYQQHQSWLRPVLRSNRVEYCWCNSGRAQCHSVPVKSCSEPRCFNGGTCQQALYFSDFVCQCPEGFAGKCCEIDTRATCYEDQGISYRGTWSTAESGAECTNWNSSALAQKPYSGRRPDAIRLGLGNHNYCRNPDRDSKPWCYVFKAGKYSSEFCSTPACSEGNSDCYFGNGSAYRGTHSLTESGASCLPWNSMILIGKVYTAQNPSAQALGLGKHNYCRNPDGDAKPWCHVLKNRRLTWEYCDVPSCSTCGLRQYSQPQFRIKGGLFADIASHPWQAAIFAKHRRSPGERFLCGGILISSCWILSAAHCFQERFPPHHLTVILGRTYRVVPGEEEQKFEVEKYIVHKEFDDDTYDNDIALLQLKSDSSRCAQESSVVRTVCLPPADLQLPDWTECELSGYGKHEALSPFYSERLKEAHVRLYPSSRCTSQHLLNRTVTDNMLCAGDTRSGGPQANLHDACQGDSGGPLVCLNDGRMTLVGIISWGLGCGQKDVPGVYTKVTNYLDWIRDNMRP
assay method text: Fibrinolytic protease selectivity, Kass, t-PA chromogenic assay
Type: biochemical
assay setup: apparent association constant
Square brackets hold non-standard residues; d marks the D form. Peptide text beside a SMILES is read from it. dPip = O=C(O)[C@H]1CCCCN1; Nphe = O=C(O)CNCc1ccccc1
quantity kind: Enzyme Kass t-PA (L/mol × 10^6)

1: Cl.Cl.N=C(N)NCCC[C@@H](C=O)NC(=O)CN(CCCc1ccccc1)C(=O)[C@H]1CCCCN1 [Example 9, D--hPro--N(PhCH2 CH2 CH2)Gly--ArgH.2HCl]
2: CCCN(CC(=O)N[C@H](C=O)CCCNC(=N)N)C(=O)[C@H]1CCCCN1.Cl.Cl
3: Cl.Cl.N=C(N)NCCC[C@@H](C=O)NC(=O)CN(Cc1ccccc1)C(=O)[C@H]1CCCCN1 [Example 7, D--hPro--N(Bn)Gly--ArgH.2HCl] (H-[dPip]-[Nphe]-Arg-aldehyde)
In ascending order of recorded Enzyme Kass t-PA, list the compounds from the set above. To answer, write out the labels according to the requested order.
2, 1, 3
(2: 0.004 L/mol × 10^6, 1: 0.006 L/mol × 10^6, 3: 0.010 L/mol × 10^6)

* * *

assayed system: factor Xa (Homo sapiens, UniProt P00742)
Construct: Human factors X, Xa, IXa, XIa, and XIIa are purchased from Enzyme Research Laboratories; purchased Enzyme Research Laboratories, South Bend, Ind
Sequence (P00742 235-488 limits assumed): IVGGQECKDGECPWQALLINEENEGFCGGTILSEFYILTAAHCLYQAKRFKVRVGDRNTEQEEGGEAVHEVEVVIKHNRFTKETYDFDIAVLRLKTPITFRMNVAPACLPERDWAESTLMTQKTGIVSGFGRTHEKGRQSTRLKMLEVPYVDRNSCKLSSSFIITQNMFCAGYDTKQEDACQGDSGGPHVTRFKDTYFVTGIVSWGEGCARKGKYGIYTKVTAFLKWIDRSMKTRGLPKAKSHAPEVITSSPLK
Sequence (P00742 41-179 partner limits assumed): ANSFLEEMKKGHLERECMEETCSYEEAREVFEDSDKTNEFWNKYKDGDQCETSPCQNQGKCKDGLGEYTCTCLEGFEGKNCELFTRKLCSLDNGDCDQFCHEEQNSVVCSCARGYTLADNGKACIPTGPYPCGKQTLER
assay method text: Serine protease selectivity, Kass, factor Xa chromogenic assay
Type: biochemical
assay setup: apparent association constant
quantity kind: Enzyme Kass Xa (L/mol × 10^6)

Some compounds with recorded Enzyme Kass Xa:
{"columns": ["compound", "Enzyme Kass Xa [L/mol × 10^6]"],
 "data": [
  ["Cc1ccccc1N(CC(=O)N[C@H](C=O)CCCN=C(N)N)C(=O)[C@H]1CCCCN1.Cl.Cl [Example 12, D--hPro--N(o--Me--Ph)Gly--ArgH.2HCl]", 0.14],
  ["Cl.Cl.N=C(N)NCCC[C@@H](C=O)NC(=O)CN(CCc1ccccc1)C(=O)[C@@H]1CCCN1 [Example 19, L--Pro--N(CH2 CH2 Ph)Gly--ArgH.2HCl]", 0.11],
  ["Cl.Cl.NC(N)=NCCC[C@@H](C=O)NC(=O)CN(CCc1ccccc1)C(=O)[C@H]1CCCN1 [Example 18, D--Pro--N(CH2 CH2 Ph)Gly--ArgH.2HCl]", 0.47]
]}

I: Cl.Cl.N=C(N)NCCC[C@@H](C=O)NC(=O)CN(C(=O)[C@H]1CCCCN1)c1ccccc1 [Example 11, D--hPro--N(Ph)Gly--ArgH.2HCl]
II: Cl.Cl.N=C(N)NCCC[C@@H](C=O)NC(=O)CN(CCCc1ccccc1)C(=O)[C@H]1CCCCN1 [Example 9, D--hPro--N(PhCH2 CH2 CH2)Gly--ArgH.2HCl]
III: Cl.Cl.N=C(N)NCCC[C@@H](C=O)NC(=O)CN(CCc1ccccc1)C(=O)[C@H]1CCCCN1 [Example 8]
Rank the 3 compounds: largest Enzyme Kass Xa first, smallest last. To answer, write out the labels according to the requested order.
III, II, I

* * *

assayed system: Human plasmin (Homo sapiens, UniProt P00747)
Construct: Human plasmin is purchased from Boehringer Mannheim; purchased Boehringer Mannheim, Indianapolis, Indiana
assay method text: Fibrinolytic protease selectivity, Kass, plasmin chromogenic assay
Assay type: biochemical
assay setup: apparent association constant
Square brackets hold non-standard residues; d marks the D form. Peptide text beside a SMILES is read from it. dPip = O=C(O)[C@H]1CCCCN1; Nphe = O=C(O)CNCc1ccccc1; Nleu = CC(C)CNCC(=O)O; Sar = CNCC(=O)O
quantity kind: Enzyme Kass Plasmin (L/mol × 10^6)

{"columns": ["compound", "Enzyme Kass Plasmin [L/mol × 10^6]"],
 "data": [
  ["Cl.Cl.N=C(N)NCCC[C@@H](C=O)NC(=O)CN(CCCc1ccccc1)C(=O)[C@H]1CCCCN1 [Example 9, D--hPro--N(PhCH2 CH2 CH2)Gly--ArgH.2HCl]", 0.12],
  ["CC(C)N(CC(=O)NC(C=O)CCCNC(=N)N)C(=O)C1CCCCN1.Cl.Cl [Example 4, D--hPro--N(i--Pr)Gly--ArgH.2HCl]", 0.031]
]}

a: CC(C)CN(CC(=O)N[C@H](C=O)CCCNC(=N)N)C(=O)[C@H]1CCCCN1.Cl.Cl [Example 5, D--hPro--N(i--Bu)Gly--ArgH.2HCl] (H-[dPip]-[Nleu]-Arg-aldehyde)
b: Cl.Cl.N=C(N)NCCC[C@@H](C=O)NC(=O)CN(Cc1ccccc1)C(=O)[C@H]1CCCCN1 [Example 7, D--hPro--N(Bn)Gly--ArgH.2HCl] (H-[dPip]-[Nphe]-Arg-aldehyde)
c: CN(CC(=O)N[C@H](C=O)CCCNC(=N)N)C(=O)[C@H]1CCCCN1.Cl.Cl [Example 1] (H-[dPip]-[Sar]-Arg-aldehyde)
Order each entry by recorded Enzyme Kass Plasmin, climbing from the minimum. To answer, write out the labels according to the requested order.
c, a, b

* * *

Test system: human plasma
assay method text: Human plasma anticoagulation, prothrombin time (PT)
assay setup: concentration required to double the PT, linear extrapolation
Square brackets hold non-standard residues; d marks the D form. Peptide text beside a SMILES is read from it. dPip = O=C(O)[C@H]1CCCCN1; Nleu = CC(C)CNCC(=O)O
quantity kind: Human Plasma Anticoagulation 2 × Clotting time PT

{"columns": ["compound", "result"],
 "data": [
  ["Cc1ccccc1N(CC(=O)N[C@H](C=O)CCCN=C(N)N)C(=O)[C@H]1CCCCN1.Cl.Cl [Example 12, D--hPro--N(o--Me--Ph)Gly--ArgH.2HCl]", "8,200 ng/mL"]
]}

Lookup result for CC(C)CCN(CC(=O)N[C@H](C=O)CCCN=C(N)N)C(=O)[C@H]1CCCCN1.Cl.Cl [Example 6, D--hPro--N(isoamyl)Gly--ArgH.2HCl] ; measured Human Plasma Anticoagulation 2 × Clotting time PT: 2,600 ng/mL

Lookup result for CC(C)CN(CC(=O)N[C@H](C=O)CCCNC(=N)N)C(=O)[C@H]1CCCCN1.Cl.Cl [Example 5, D--hPro--N(i--Bu)Gly--ArgH.2HCl] (H-[dPip]-[Nleu]-Arg-aldehyde) ; measured Human Plasma Anticoagulation 2 × Clotting time PT: 4,900 ng/mL

Lookup result for `Cl.Cl.NC(N)=NCCC[C@@H](C=O)NC(=O)CN(CCC1CCCCC1)C(=O)[C@H]1CCCCN1` ; measured Human Plasma Anticoagulation 2 × Clotting time PT: 6,900 ng/mL

* * *

assayed system: factor Xa (Homo sapiens, UniProt P00742)
Construct: Human factors X, Xa, IXa, XIa, and XIIa are purchased from Enzyme Research Laboratories; purchased Enzyme Research Laboratories, South Bend, Ind
assay method text: Serine protease selectivity, Kass, factor Xa chromogenic assay
Assay type: biochemical
assay setup: apparent association constant
quantity kind: Enzyme Kass Xa (L/mol × 10^6)

{"columns": ["compound", "assayed system", "quantitative readout"],
 "data": [
  ["CCCN(CC(=O)N[C@H](C=O)CCCNC(=N)N)C(=O)[C@H]1CCCCN1.Cl.Cl", "factor Xa (Homo sapiens, UniProt P00742)", 0.084],
  ["CC(C)CCN(CC(=O)N[C@H](C=O)CCCN=C(N)N)C(=O)[C@H]1CCCCN1.Cl.Cl [Example 6, D--hPro--N(isoamyl)Gly--ArgH.2HCl]", "factor Xa (Homo sapiens, UniProt P00742)", 0.071],
  ["Cl.Cl.N=C(N)NCCC[C@@H](C=O)NC(=O)CN(CCCCC(=O)O)C(=O)[C@H]1CCCCN1", "factor Xa (Homo sapiens, UniProt P00742)", 0.078],
  ["CC(C)N(CC(=O)NC(C=O)CCCNC(=N)N)C(=O)C1CCCCN1.Cl.Cl [Example 4, D--hPro--N(i--Pr)Gly--ArgH.2HCl]", "factor Xa (Homo sapiens, UniProt P00742)", 0.074]
]}

Measured values drawn from patent US6090787A for this set.
